system: POLPE (ladysthumb); assay: greenhouse post-emergence herbicidal test; type: in vivo; conditions: 0.125 and 0.25 kg/ha (a.s.)
quantity.name: herbicidal action against POLPE

compound="Cc1c(C(=O)C2=C(O)C3CCC(C3)C2=O)ccc2sc(Oc3ccccc3F)nc12 (stereo not shown)" reported_value="very good"
compound="CCc1nc2c(C)c(C(=O)C3=C(O)C4CCC(C4)C3=O)ccc2s1 (stereo not shown)" reported_value="very good"
compound="COCc1nc2c(C)c(C(=O)C3=C(O)C4CCC(C4)C3=O)ccc2s1 (stereo not shown)" reported_value="very good"
